target.under.test: UniProtKB P42345
experiment.summary: Lanthascreen kinase binding assay, assay G
protocol.conditions: read-out: Assay G mTOR IC50
Measured IC50 by item

Guide cases for IC50, answers given:
Data request: Could you share what IC50 was measured for Cc1cc(-c2nc(-c3cc(S(=O)(=O)NCCC(C)(O)C(F)(F)F)ccc3C)cnc2N)ccn1 (stereo not drawn) , tested on UniProtKB P42345?
Data returned: > 9.1 µM

Data request: Given the entry "Cc1ncn(-c2nc(-c3cc(S(=O)(=O)NCCC(C)(C)O)ccc3C)cnc2N)n1" , what IC50 was observed with UniProtKB P42345?
Data returned: > 9.1 µM

Kindly consider the entry below.
Data request: Item: Cc1cc(-c2nc(-c3cc(S(=O)(=O)NCC4CCOC4)ccc3C)cnc2N)ccn1 (stereo not drawn) Test system: UniProtKB P42345 Read-out: IC50 Value: ?
Data returned: > 9.1 µM

###

experiment.summary: Microsomal clearance assay (M)
protocol.conditions: intrinsic clearance in rat liver microsomes
endpoint.name: Assay M RLM CI(int) (µL/min/mg)
Give your result in µL/min/mg as a bare value.

// solved cases for Assay M RLM CI(int) follow
Data request: Can you look up the measured Assay M RLM CI(int) of "Cc1ncc(-c2nc(-c3cc(S(=O)(=O)NCC4(C)COC4)ccc3C)cnc2N)s1" for me?
Data returned: 95

Data request: // Assay M RLM CI(int) lookup, key: Cc1ccc(S(=O)(=O)N[C@H]2C[C@@H](O)C2)cc1-c1cnc(N)c(-n2cncn2)n1 [Example 71b]
Data returned: 26

Data request: Form field: reported Assay M RLM CI(int) of "Cc1ccc(S(=O)(=O)NCCC(C)(C)O)cc1-c1cnc(N)c(-n2cnc(C(C)C)n2)n1"
Data returned: 311

Data request: Give its Assay M RLM CI(int) value. Item: "CCc1nnc(-c2nc(-c3cc(S(=O)(=O)N[C@H]4CC[C@H](O)CC4)ccc3C)cnc2N)o1"
Data returned: 31

Data request: Sample "Cc1cc(-c2nc(-c3cc(S(=O)(=O)NC4CC(F)(F)C4)ccc3C)cnc2N)ccn1" — what was its Assay M RLM CI(int)?
Data returned: 130

More entries:
Data request: Which measured Assay M RLM CI(int) value corresponds to "Cc1ccc(S(=O)(=O)NCCC(C)(C)O)cc1-c1cnc(N)c(-c2cscn2)n1" ?
Data returned: 112

Data request: Find the recorded Assay M RLM CI(int) belonging to "Cc1cc(C)c(S(=O)(=O)NCC(C)(C)O)cc1-c1cnc(N)c(-n2cncn2)n1" and report it.
Data returned: 31

Data request: Which value of Assay M RLM CI(int) has been reported for "Cc1cn(-c2nc(-c3cc(S(=O)(=O)N[C@H]4CC[C@H](O)CC4)ccc3C)cnc2N)cn1" in the records?
Data returned: 24

###

target.under.test: PI 4-kinase beta (Homo sapiens, UniProt Q9UBF8)
Sequence (Q9UBF8 whole entry): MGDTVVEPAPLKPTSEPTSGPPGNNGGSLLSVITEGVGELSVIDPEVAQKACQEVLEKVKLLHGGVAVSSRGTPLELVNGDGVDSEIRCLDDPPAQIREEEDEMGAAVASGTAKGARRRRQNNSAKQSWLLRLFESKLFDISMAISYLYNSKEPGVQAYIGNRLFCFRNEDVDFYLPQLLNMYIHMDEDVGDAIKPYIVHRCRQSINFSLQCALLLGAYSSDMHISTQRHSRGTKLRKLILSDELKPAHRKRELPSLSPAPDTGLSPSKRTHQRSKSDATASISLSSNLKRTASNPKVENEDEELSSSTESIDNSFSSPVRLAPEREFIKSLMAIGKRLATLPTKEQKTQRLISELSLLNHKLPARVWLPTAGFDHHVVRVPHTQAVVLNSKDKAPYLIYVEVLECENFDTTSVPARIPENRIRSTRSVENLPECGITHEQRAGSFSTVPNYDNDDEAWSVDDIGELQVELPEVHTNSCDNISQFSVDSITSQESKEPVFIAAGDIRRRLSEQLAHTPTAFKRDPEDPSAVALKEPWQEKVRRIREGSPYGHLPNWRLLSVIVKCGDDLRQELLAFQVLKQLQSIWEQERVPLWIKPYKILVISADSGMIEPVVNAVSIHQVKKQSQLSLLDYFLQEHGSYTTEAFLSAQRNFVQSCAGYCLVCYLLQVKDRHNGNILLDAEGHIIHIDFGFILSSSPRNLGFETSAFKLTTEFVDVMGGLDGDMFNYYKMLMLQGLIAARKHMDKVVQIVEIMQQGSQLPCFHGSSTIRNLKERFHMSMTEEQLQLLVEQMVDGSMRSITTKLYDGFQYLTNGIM
experiment.summary: Kinase Glo Luminescent Kinase Assay (Kglo), assay D
Format: biochemical
protocol.conditions: read-out: Assay D PI4Kβ IC50
endpoint.name: IC50

For orientation, consider the following solved cases.
Data request: Find IC50 (PI 4-kinase beta (Homo sapiens, UniProt Q9UBF8)) for the entry "Cc1noc(-c2nc(-c3cc(S(=O)(=O)N[C@H]4CC[C@H](O)CC4)ccc3C)cnc2N)n1"
Data returned: > 9.1 µM

Data request: Could you share what IC50 was measured for "Cc1ccc(S(=O)(=O)NCCC(C)(C)O)cc1-c1cnc(N)c(-c2ccnc(F)c2)n1" , tested on PI 4-kinase beta (Homo sapiens, UniProt Q9UBF8)?
Data returned: > 9.1 µM

Data request: PI 4-kinase beta (Homo sapiens, UniProt Q9UBF8) / IC50 / "Cc1ccc(S(=O)(=O)NCCC(C)(C)O)cc1-c1cnc(N)c(-c2cc(C(F)(F)F)nn2C)n1" : value?
Data returned: > 9.1 µM

Data request: Entry "CC[C@H](CO)NS(=O)(=O)c1ccc(C)c(-c2cnc(N)c(-c3ccnc(C)c3)n2)c1" , system PI 4-kinase beta (Homo sapiens, UniProt Q9UBF8): what IC50 was measured?
Data returned: > 9.1 µM

Data request: Checklist item: IC50 tested on PI 4-kinase beta (Homo sapiens, UniProt Q9UBF8), entry "Cc1ccc(S(=O)(=O)NC[C@@H]2COCCN2)cc1-c1cnc(N)c(-c2cn(C)nc2C)n1" , value?
Data returned: > 10 µM

More entries:
Data request: So what IC50 did Cc1ccc(S(=O)(=O)NCCC(O)C(F)(F)F)cc1-c1cnc(N)c(-c2cnn(C)c2)n1 (stereo not drawn) get with PI 4-kinase beta (Homo sapiens, UniProt Q9UBF8)?
Data returned: > 9.1 µM

Data request: Form entry - test system: PI 4-kinase beta (Homo sapiens, UniProt Q9UBF8); read-out: IC50; compound: "Cc1ccc(S(=O)(=O)NCC(C)(C)CO)cc1-c1cnc(N)c(-c2nc(C3CC3)no2)n1"
Data returned: > 9.1 µM

Data request: Value wanted: IC50 (PI 4-kinase beta (Homo sapiens, UniProt Q9UBF8)) of entry "Cc1csc(-c2nc(-c3cc(S(=O)(=O)NCCC(C)(C)O)ccc3C)cnc2N)c1"
Data returned: > 9.1 µM

Data request: # get_value(readout= IC50, system= PI 4-kinase beta (Homo sapiens, UniProt Q9UBF8)) for "Cc1ccc(S(=O)(=O)NCC(C)(C)O)cc1-c1cnc(N)c(-c2cnn(C)c2C)n1"
Data returned: > 10 µM

Data request: # get_value(readout= IC50, system= PI 4-kinase beta (Homo sapiens, UniProt Q9UBF8)) for "Cc1cc(-c2nc(-c3cc(S(=O)(=O)N[C@H]4CC[C@H](N)CC4)ccc3C)cnc2N)ccn1"
Data returned: > 9.1 µM

Data request: API: value(readout= IC50, system= PI 4-kinase beta (Homo sapiens, UniProt Q9UBF8), query= "Cc1noc(-c2nc(-c3cc(S(=O)(=O)NC[C@H]4C[C@@H](O)C4)ccc3C)cnc2N)n1" )
Data returned: > 9.55 µM

Data request: Lab request: please report IC50 under test system PI 4-kinase beta (Homo sapiens, UniProt Q9UBF8) for Cc1cc(-c2nc(-c3cc(S(=O)(=O)NCC4CCN(C)C4)ccc3C)cnc2N)ccn1 (stereo not drawn)
Data returned: > 9.1 µM

Data request: Lab note: need IC50 for "Cc1ccc(S(=O)(=O)NC2CC2)cc1-c1cnc(N)c(-n2cncn2)n1" on PI 4-kinase beta (Homo sapiens, UniProt Q9UBF8), anyone have it?
Data returned: 1.7 µM

Data request: Lab request: please report IC50 under test system PI 4-kinase beta (Homo sapiens, UniProt Q9UBF8) for "Cc1ccc(S(=O)(=O)NCCC(C)(C)O)cc1-c1cnc(N)c(-c2ccc(N3CCOCC3)nc2)n1"
Data returned: 3.83 µM

Data request: Find the measured IC50: item "Cc1cc(-c2nc(-c3cc(S(=O)(=O)NCC4(O)COC4)ccc3C)cnc2N)ccn1" , target or system PI 4-kinase beta (Homo sapiens, UniProt Q9UBF8).
Data returned: > 9.1 µM

Data request: // lookup IC50 | system=PI 4-kinase beta (Homo sapiens, UniProt Q9UBF8) | key= "Cc1ccc(S(=O)(=O)NCCC(C)(C)O)cc1-c1cnc(N)c(-c2ccc(OC3CCOCC3)nc2)n1"
Data returned: 3.4 µM

Data request: So what IC50 did "Cc1ccc(S(=O)(=O)NCCC2(O)CCCC2)cc1-c1cnc(N)c(-n2cncn2)n1" get with PI 4-kinase beta (Homo sapiens, UniProt Q9UBF8)?
Data returned: 5.3 µM

Data request: What value of IC50 on PI 4-kinase beta (Homo sapiens, UniProt Q9UBF8) does Cc1ncc(-c2nc(-c3cc(S(=O)(=O)NC[C@H]4CCCO4)ccc3C)cnc2N)s1 (single isomer, unassigned) [Example 45.6b] have?
Data returned: > 10 µM
